These entries and their values trace back to patent US20200317776A1.

Molecular target: T1, human TREM2 Fc fusion (entire TREM2 ECD; only one Fc arm fused to TREM2) (human, UniProt Q9NZC2 19-174)
T1 construct: also called huTREM2-Fc; recombinant hTREM2
T1 sequence: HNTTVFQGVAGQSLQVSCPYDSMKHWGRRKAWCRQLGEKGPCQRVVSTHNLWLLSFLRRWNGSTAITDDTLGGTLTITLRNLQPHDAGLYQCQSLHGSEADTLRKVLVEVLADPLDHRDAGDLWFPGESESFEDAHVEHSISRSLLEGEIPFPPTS
Assay: BLI, Fab, monovalent
readout kind: Kd (nM)

>>> value_reported("AL2p-43 (antibody, V domains shown, Fab and IgG formats under one id) VH: QVQLVQSGAEVKKPGSSVKVSCKASGYAFSSHWMNWVRQAPGQGLEWMGRIYPGGGDTNYARKFRGRVTITADESTSTAYMELSSLRSEDTAVYYCARLLRNQPGASYAMDYWGQGTLVTVSS VL: GVVMTQTPLSLSVTPGQPASISCRSSRSLVHSNRYTYLHWYLQKPGQSPQLLIYKVSNRRSGVPDRFSGSGSGTDFTLKISRVEAEDVGVYYCSQSTRVPYTFGQGTKLEIK")
0.493
>>> value_reported("AL2p-12 (antibody, V domains shown, Fab and IgG formats under one id) VH: QVQLVQSGAEVKKPGSSVKVSCKASGYAFSSHWMNWVRQAPGQGLEWMGRIYPGDGDTNYAHKFQGRVTITADESTSTAYMELSSLRSEDTAVYYCARLLRNQPGESYAMDYWGQGTLVTVSS VL: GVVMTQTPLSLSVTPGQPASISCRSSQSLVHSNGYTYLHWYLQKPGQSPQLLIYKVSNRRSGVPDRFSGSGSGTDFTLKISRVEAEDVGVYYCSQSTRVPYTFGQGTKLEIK")
5.86
>>> value_reported("AL2p-46 (antibody, V domains shown, Fab and IgG formats under one id) VH: QVQLVQSGAEVKKPGSSVKVSCKASGYAFSSDWMNWVRQAPGQGLEWMGRIYPGEGDTNYARKFQGRVTITADESTSTAYMELSSLRSEDTAVYYCARLLRNKPGESYAMDYWGQGTLVTVSS VL: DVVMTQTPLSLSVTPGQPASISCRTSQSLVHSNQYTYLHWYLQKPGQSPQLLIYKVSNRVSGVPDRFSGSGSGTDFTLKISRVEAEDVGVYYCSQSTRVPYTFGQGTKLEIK")
13
>>> value_reported("AL2p-38 (antibody, V domains shown, Fab and IgG formats under one id) VH: QVQLVQSGAEVKKPGSSVKVSCKASGYAFSSHWMNWVRQAPGQGLEWMGRIYPGGGDTNYAQKFRGRVTITADESTSTAYMELSSLRSEDTAVYYCARLLRNQPGASYAMDYWGQGTLVTVSS VL: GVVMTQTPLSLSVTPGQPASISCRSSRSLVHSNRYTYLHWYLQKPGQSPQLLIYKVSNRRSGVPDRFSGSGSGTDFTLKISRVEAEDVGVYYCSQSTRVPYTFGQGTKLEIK")
0.623
>>> value_reported("AL2p-61 (antibody, IgG1, V domains shown) VH: QVQLVQSGAEVKKPGSSVKVSCKASGYAFSSQWMNWVRQAPGQGLEWMGRIYPGEGDTNYARKFQGRVTITADESTSTAYMELSSLRSEDTAVYYCARLLRNQPGESYAMDYWGQGTLVTVSS VL: GVVMTQTPLSLSVTPGQPASISCRSSQSLVHSNQYTYLHWYLQKPGQSPQLLIYKVSNRRSGVPDRFSGSGSGTDFTLKISRVEAEDVGVYYCSQSTRVPYTFGQGTKLEIK")
3730
>>> value_reported("AL2p-32 (antibody, V domains shown, Fab and IgG formats under one id) VH: QVQLVQSGAEVKKPGSSVKVSCKASGYAFSSEWMNWVRQAPGQGLEWMGRIYPGDGDTNYAQKFQGRVTITADESTSTAYMELSSLRSEDTAVYYCARLLRNQPGESYAMDYWGQGTLVTVSS VL: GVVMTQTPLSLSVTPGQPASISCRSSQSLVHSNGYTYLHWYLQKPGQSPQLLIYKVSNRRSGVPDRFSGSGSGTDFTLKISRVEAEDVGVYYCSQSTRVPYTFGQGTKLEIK")
36
>>> value_reported("AL2p-53 (antibody, V domains shown, Fab and IgG formats under one id) VH: EVQLVQSGAEVKKPGSSVKVSCKASGYAFSSHWMNWVRQAPGQGLEWMGRIYPGEGDTNYAQKFHGRVTITADESTSTAYMELSSLRSEDTAVYYCARLLRNQPGESYAMDYWGQGTLVTVSS VL: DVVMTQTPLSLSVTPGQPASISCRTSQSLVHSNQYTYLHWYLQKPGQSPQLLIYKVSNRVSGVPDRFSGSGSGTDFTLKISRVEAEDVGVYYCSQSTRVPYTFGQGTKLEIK")
21.1
>>> value_reported("AL2p-7 (antibody, V domains shown, Fab and IgG formats under one id) VH: QVQLVQSGAEVKKPGSSVKVSCKASGYAFSLSWMNWVRQAPGQGLEWMGRIYPGDGDTNYAQKFRGRVTITADESTSTAYMELSSLRSEDTAVYYCARLLRNQPGESYAMDYWGQGTLVTVSS VL: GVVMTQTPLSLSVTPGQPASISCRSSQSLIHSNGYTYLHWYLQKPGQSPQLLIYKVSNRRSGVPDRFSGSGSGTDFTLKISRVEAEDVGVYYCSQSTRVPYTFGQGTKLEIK")
8.38
>>> value_reported("AL2p-45 (antibody, V domains shown, Fab and IgG formats under one id) VH: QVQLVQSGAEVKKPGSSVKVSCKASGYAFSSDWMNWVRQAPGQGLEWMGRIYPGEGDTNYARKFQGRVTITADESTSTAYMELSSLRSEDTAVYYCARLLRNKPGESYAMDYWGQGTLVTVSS VL: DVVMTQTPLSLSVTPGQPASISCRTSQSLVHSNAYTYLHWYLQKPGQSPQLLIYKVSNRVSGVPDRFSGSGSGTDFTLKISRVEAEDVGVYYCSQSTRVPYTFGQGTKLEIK")
17.8
>>> value_reported("AL2p-57 (antibody, V domains shown, Fab and IgG formats under one id) VH: EVQLVQSGAEVKKPGSSVKVSCKASGYAFSSHWMNWVRQAPGQGLEWMGRIYPGEGDTNYAQKFHGRVTITADESTSTAYMELSSLRSEDTAVYYCARLLRNKPGESYAMDYWGQGTLVTVSS VL: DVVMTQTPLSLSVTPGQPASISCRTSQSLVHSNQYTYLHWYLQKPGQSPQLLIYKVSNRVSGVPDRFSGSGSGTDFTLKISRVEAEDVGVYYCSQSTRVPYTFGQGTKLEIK")
17.8
